Entry source: patent US7666906B2

# System Name: human EAAT2 (Homo sapiens, UniProt P43004)
# Construct: expressed in transfected cells
# Protocol: inhibition of [14C]glutamate uptake by human EAAT2 expressed on MDCK or COS-1 cells
# Format: cell-based
# Reported Conditions: stably expressed on MDCK cells; 1 μM L-[14C]glutamate, 12 minutes
pIC50: −log10 of the molar value.
Metric Name: pIC50

Consider the worked cases shown below.
COc1cccc(C(=O)Nc2cccc(CO[C@H](C(=O)O)[C@H](N)C(=O)O)c2)c1 :: 7.43
N[C@H](C(=O)O)[C@H](OCc1cccc(NC(=O)c2ccc([N+](=O)[O-])cc2)c1)C(=O)O :: 7.85
Nc1cccc(CO[C@H](C(=O)O)[C@H](N)C(=O)O)c1 :: 5.68

(A) COc1ccc(C(=O)Nc2cccc(CO[C@H](C(=O)O)[C@H](N)C(=O)O)c2)cc1
(B) N[C@H](C(=O)O)[C@H](OCc1cccc(NC(=O)c2ccc(C(F)(F)F)cc2)c1)C(=O)O
-- ask Given A and given B , which shows the smaller recorded pIC50? // return label of chosen record
-- reply A
(A: 7.92, B: 8.72)

(A) N[C@H](C(=O)O)[C@H](OCc1cccc(NC(=O)Cc2ccccc2)c1)C(=O)O
(B) CCCCCCOc1ccc(C(=O)Nc2cccc(CO[C@H](C(=O)O)[C@H](N)C(=O)O)c2)cc1
-- ask Could you please tell me which of these two has the higher pIC50: A or B ? Give the label under which the chosen entry appears.
-- reply B
(B: 8.92, A: 6.84)
